- Tested on: SF-268 CNS
- test-description: NCI-60 one-dose screen, 48 h
- conditions-used: 10 µM unless noted
- Method: Cells are grown in 96 well plates and exposed to the test compound for 48 hours. Compounds are tested at a single concentration, which is 10^-5 M for most compounds. The reported endpoint is percent growth (GI% or GIPRCNT), where numbers from 0 - 100% represent growth inhibition, and numbers from -100% - 0 represent cell death. For example, a value of 40 represents 60% growth inhibition. A value of 0 means no net growth occurred over the course of the experiment. […]
About 83,000 compounds went through this panel and 20% of them were active in at least one assay; those are over-represented in the sample as a whole. Activity calls are given as the source filed them. The calls were made as follows: active = growth percent below 10; inactive = the rest.
Returns: one label drawn from active, inactive

Qu. Hi, sorry to bother you, what did the test record for CCOc1cc(C2C(Cl)C(=O)N2n2cnnc2)ccc1O (configuration not stated) ?
Ans. inactive

Qu. Hi, sorry to bother you, what did the test record for `CCc1c(C(=O)N[C@@H]2c3cc(Cl)ccc3CC[C@@H]2O)[nH]c(C)c1C(C)=O` ?
Ans. inactive

Qu. Hi, sorry to bother you, what did the test record for `O=C(C[C@@]1(O)C(=O)Nc2c(Cl)ccc(Cl)c21)c1ccc(C2CC2)cc1` ?
Ans. inactive

Qu. Hi, sorry to bother you, what did the test record for `CN(C)CCn1cc(-c2ccc3c(Nc4ccc(CC(=O)Nc5cccc(F)c5)cc4)ncnc3c2)cn1` ?
Ans. active

Qu. Hi, sorry to bother you, what did the test record for COC1=CC(c2ccc[nH]2)=N/C1=C\c1[nH]c(C)c(C(=O)OCCn2cc(CCC[C@@H]3Cc4cc(O)ccc4C4CC[C@]5(C)[C@@H](O)CC[C@H]5C43)nn2)c1C (some centres not stated) ?
Ans. inactive

Qu. Hi, sorry to bother you, what did the test record for `COc1ccc(OC)c(Nc2nc3nonc3nc2Nc2cccc(Br)c2)c1` ?
Ans. inactive

Qu. Hi, sorry to bother you, what did the test record for `O=C1NN(C(=O)c2ccc(O)cc2)C(c2ccccc2)=N/C1=C\c1cn(-c2ccccc2)nc1-c1ccccc1` ?
Ans. inactive

Qu. Hi, sorry to bother you, what did the test record for O=c1[nH]c(=O)n(C2CC(O)C(CO)O2)cc1CO (configuration not stated) ?
Ans. inactive

Qu. Hi, sorry to bother you, what did the test record for `Cc1cc(N(CCCNc2ccnc3cc(Cl)ccc23)Cc2ccccn2)nc(N2CCOCC2)n1` ?
Ans. inactive

Qu. Hi, sorry to bother you, what did the test record for `COc1ccc(/C(C)=C(\c2ccc(Cl)cc2)c2ccc(OCCN3CCCCC3)cc2)cc1F` ?
Ans. inactive

Qu. Hi, sorry to bother you, what did the test record for COc1cc(C2C=C(c3cccc(NC(C)=O)c3)Nc3ncnn32)cc(OC)c1OC (configuration not stated) ?
Ans. inactive

Qu. Hi, sorry to bother you, what did the test record for `O=C1N/C(=N/O)S/C1=C/c1cn(-c2ccccc2)nc1-c1ccccc1` ?
Ans. inactive

Qu. Hi, sorry to bother you, what did the test record for `COC(=O)[C@]12CC[C@@H](C)[C@H](C)[C@@H]1C1=CC[C@@H]3[C@@]4(C)C(C=O)=C[C@@](C)(CO)C4=CC[C@@]3(C)[C@]1(C)CC2` ?
Ans. inactive

Qu. Hi, sorry to bother you, what did the test record for `CSc1ncc(C)c(Nc2ccc(Cl)cc2)n1` ?
Ans. inactive

Qu. Hi, sorry to bother you, what did the test record for `NC(=S)N/N=C/C(=O)O` ?
Ans. inactive

Qu. Hi, sorry to bother you, what did the test record for `CCN(CC)N=Nc1nn(C(=O)Nc2ccc(Cc3ccccc3)cc2)c2ccc(Cl)cc12` ?
Ans. inactive

Qu. Hi, sorry to bother you, what did the test record for `CN(C)c1ccc(/C=N/NC(=O)COc2cc(=O)n(C)c3ccccc23)cc1` ?
Ans. inactive

Qu. Hi, sorry to bother you, what did the test record for `C[C@H]1[C@H](C)CC[C@]2(C(=O)N3CCN(C)CC3)CC[C@]3(C)C(=CC[C@@H]4[C@@]5(C)C/C(=C/c6cccnc6)C(=O)C(C)(C)[C@@H]5CC[C@]43C)[C@H]12` ?
Ans. active

Qu. Hi, sorry to bother you, what did the test record for `N[C@@H]1CCC[C@H]1NCCCCN1C(=O)c2cccc3cccc(c23)C1=O` ?
Ans. inactive

Qu. Hi, sorry to bother you, what did the test record for `NC(=O)c1c(NC(=O)c2ccccn2)sc2c1CCC(=O)C2` ?
Ans. inactive

Qu. Hi, sorry to bother you, what did the test record for `CCOc1cccnc1/C=N/NC(N)=S` ?
Ans. inactive

Qu. Hi, sorry to bother you, what did the test record for `CC(/C=N/NC(=O)c1cc(-c2ccco2)[nH]n1)=C\c1ccccc1` ?
Ans. inactive

Qu. Hi, sorry to bother you, what did the test record for `CC(C)c1ccc(NC(=O)Cc2ccc(Nc3ncnc4cc(-c5cnn(CCN(C)C)c5)ccc34)cc2)cc1` ?
Ans. active

Qu. Hi, sorry to bother you, what did the test record for `CCCCCCNCc1cc(C(C)(C)C)cc(CNCCCCCC)c1O` ?
Ans. active

Qu. Hi, sorry to bother you, what did the test record for `CCNCCNc1cc(-c2cccc(C(F)(F)F)c2)c(C#N)c2nc3ccccc3n12` ?
Ans. active

Qu. Hi, sorry to bother you, what did the test record for `O=C(/C=C/c1ccccc1)c1ccc2ccccc2c1` ?
Ans. inactive

Qu. Hi, sorry to bother you, what did the test record for `CCN(CC)CCOc1ccc(/C(=C(\C)c2ccc(OC)c(F)c2)c2ccc(Cl)cc2)cc1` ?
Ans. inactive

Qu. Hi, sorry to bother you, what did the test record for `COc1ccc(/C(C)=C(\c2ccc(Cl)cc2)c2ccc(OCCN3CCCC3)cc2)cc1F` ?
Ans. inactive

Qu. Hi, sorry to bother you, what did the test record for C=C(CNCCc1ccc(O)cc1)[C@@H]1CC[C@]2(COC3CCCCO3)CC[C@]3(C)[C@H](CC[C@@H]4[C@@]5(C)CCC(N)C(C)(C)[C@@H]5CC[C@]43C)[C@@H]12 (some centres not stated) ?
Ans. active

Qu. Hi, sorry to bother you, what did the test record for CCOC(=O)C(O)C(O)(c1ccccc1)c1ccccc1 (configuration not stated) ?
Ans. inactive

Qu. Hi, sorry to bother you, what did the test record for COc1cc(C2CC(c3ccc(Nc4nc(Nc5ccc(F)cc5)nc(Nc5ccc(Cl)cc5)n4)cc3)=NN2C(C)=O)cc(OC)c1OC (configuration not stated) ?
Ans. inactive

Qu. Hi, sorry to bother you, what did the test record for `CCn1c(Sc2nnc(NC(C)=O)s2)nc2c1c(=O)n(C)c(=O)n2C` ?
Ans. inactive

Qu. Hi, sorry to bother you, what did the test record for `O=C1C2=C(CCN(Cc3ccccc3)C2)N2CCN=C2N1Cc1ccc(F)cc1F` ?
Ans. inactive

Qu. Hi, sorry to bother you, what did the test record for CC(C)CCC[C@@H](C)[C@H]1CCC2C3=CCC4C(=O)C=CC(=O)C4C3CC[C@@]21C (some centres not stated) ?
Ans. inactive

Qu. Hi, sorry to bother you, what did the test record for `NS(=O)(=O)Oc1ccc(-c2sc3cc(O)ccc3c2C(=O)c2ccc(OCCN3CCCCC3)cc2)cc1` ?
Ans. inactive

Qu. Hi, sorry to bother you, what did the test record for `CO[C@H]1/C=C/O[C@@]2(C)Oc3c(C)c(O)c4c(c3C2=O)C(=O)C(/C=N/N(c2ccccc2)c2ccccc2)=C(NC(=O)/C(C)=C\C=C\[C@H](C)[C@H](O)[C@@H](C)[C@@H](O)[C@@H](C)[C@H](OC(C)=O)[C@@H]1C)C4=O` ?
Ans. inactive

Qu. Hi, sorry to bother you, what did the test record for `O=[N+]([O-])c1cccc(/C=C/c2ccccn2)c1` ?
Ans. inactive

The values you see were collected from PubChem BioAssay (NCI).
